// data source = PubChem BioAssay AID1347426

Collected median seed-adjusted z-score values appear next to each entry.
Experiment: Novel Modifiers of Survival Motor Neuron (SMN) Protein: Gene Identification via Genome-wide siRNA Screen;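 also: luminescence tracks full-length SMN protein made from the SMN2 reporter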
Details: HEK293T SMN2-luciferase reporter, siRNA knockdown, 72 h; actives lie on both sides
About 1,400 (4.5%) of roughly 31,000 sequences were called active. Only a selection was taken, and actives are over-represented in it overall.
READOUT_NAME: median seed-adjusted z-score

[[record]]
sequence_chain = "GCAUCUGAAGACUCAGGCATT against TAZ"
readout_name = "median seed-adjusted z-score"
measurement = "0.0549 (inactive)"

[[record]]
sequence_chain = "GUGUGGAUCUGUGGACUCATT against CRB2"
readout_name = "median seed-adjusted z-score"
measurement = "0 (inactive)"

[[record]]
sequence_chain = "GACUUUGCAUUUCCUAGUATT against HSPA1A"
readout_name = "median seed-adjusted z-score"
measurement = "-0.833 (inactive)"

[[record]]
sequence_chain = "GCACCAUUCUAACAAUGGATT against NANS"
readout_name = "median seed-adjusted z-score"
measurement = "-1.54 (active)"


* * *

Assay: Novel Modifiers of Survival Motor Neuron (SMN) Protein: Gene Identification via Genome-wide siRNA Screen;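 also: luminescence tracks full-length SMN protein made from the SMN2 reporter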
Settings: HEK293T SMN2-luciferase reporter, siRNA knockdown, 72 h; actives lie on both sides
The campaign covered roughly 31,000 sequences. About 1,400 (4.5%) were called active. Shown is part of a subset that was picked to be rich in actives.
READOUT_NAME: median seed-adjusted z-score

[[record]]
sequence_chain = "CUCUGGGAGUCACGACUUUTT against GPR37L1"
readout_name = "median seed-adjusted z-score"
measurement = -0.0348

[[record]]
sequence_chain = "GCCACGAAAAUCAAUGAGATT against EDF1"
readout_name = "median seed-adjusted z-score"
measurement = 0.0783

[[record]]
sequence_chain = "CCAAGAGUGAUGCAGAGGATT against CABP4"
readout_name = "median seed-adjusted z-score"
measurement = 0.146


* * *

Assay: Novel Modifiers of Survival Motor Neuron (SMN) Protein: Gene Identification via Genome-wide siRNA Screen;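 also: luminescence tracks full-length SMN protein made from the SMN2 reporter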
Conditions: HEK293T SMN2-luciferase reporter, siRNA knockdown, 72 h; actives lie on both sides
Screen size: about 31,000 sequences; about 1,400 (4.5%) were called active. The full list was thinned out, with actives kept by preference.
Tick Criterion met if median seed-adjusted z-score is 0.008 or greater. Tick Criterion not met if median seed-adjusted z-score is less than 0.008.

[[record]]
sequence_chain = "CACCAGCGACGGGAUCUUATT against RHOBTB2"
cat = "Criterion not met"

[[record]]
sequence_chain = "CGAAUUUCCUAGUAAACCATT against TFAP2C"
cat = "Criterion met"

[[record]]
sequence_chain = "ACAGAUCCAUUUUUAGGGATT against PKIG"
cat = "Criterion met"

[[record]]
sequence_chain = "GGCUCGUAUUUUCUGGUUUTT against ACHE"
cat = "Criterion not met"

[[record]]
sequence_chain = "GGAUGUCCAGAGGCACUAATT against POLA2"
cat = "Criterion not met"

[[record]]
sequence_chain = "GGAUCAAGCUCACAAGGGATT against WDR36"
cat = "Criterion met"

[[record]]
sequence_chain = "GAAACGCAAGGGUACAGAATT against RUVBL2"
cat = "Criterion not met"

[[record]]
sequence_chain = "CAUUAUCGAUACUAUGUAATT against PSMD6"
cat = "Criterion not met"

[[record]]
sequence_chain = "GACUGACCAUACUGAUAUUTT against NPY5R"
cat = "Criterion met"


* * *

Assay: Novel Modifiers of Survival Motor Neuron (SMN) Protein: Gene Identification via Genome-wide siRNA Screen;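 also: luminescence tracks full-length SMN protein made from the SMN2 reporter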
Conditions: HEK293T SMN2-luciferase reporter, siRNA knockdown, 72 h; actives lie on both sides
Out of some 31,000 sequences screened, about 1,400 (4.5%) were called active. This excerpt belongs to a sample that is enriched for actives.
Entries and their median seed-adjusted z-score values follow.
READOUT_NAME: median seed-adjusted z-score

[[record]]
sequence_chain = "GGACCGGCCUUUUCGAAAATT against SNRNP35"
measurement = "0.172 (inactive)"

[[record]]
sequence_chain = "CCACUGUCCUGUUUGAGAUTT against FKBP6"
measurement = "-1.12 (active)"

[[record]]
sequence_chain = "UGAUGACACCAACCACGAATT against CNP"
measurement = "-0.116 (inactive)"

[[record]]
sequence_chain = "CGACUAUGCUUUAGAUUAUTT against MAS1"
measurement = "-0.0551 (inactive)"

[[record]]
sequence_chain = "CAGCUGCUAUCAGAACGGATT against APBA2"
measurement = "1.66 (active)"

[[record]]
sequence_chain = "GCCUGUUUCAAGACACUGATT against CRNN"
measurement = "-0.0758 (inactive)"

[[record]]
sequence_chain = "GCAGCUCUGAGAACGGCAATT against ARHGEF1"
measurement = "-0.0658 (inactive)"

[[record]]
sequence_chain = "GCAUCGCCCUGAUGAGUAATT against ADCY7"
measurement = "-0.0202 (inactive)"

[[record]]
sequence_chain = "UAGCUUCGGUGAUCAAGAATT against ANXA9"
measurement = "0.055 (inactive)"

[[record]]
sequence_chain = "CAUCACCUAUUGGAUCCAATT against MMP9"
measurement = "-1.15 (active)"


* * *

Assay: Novel Modifiers of Survival Motor Neuron (SMN) Protein: Gene Identification via Genome-wide siRNA Screen;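 also: luminescence tracks full-length SMN protein made from the SMN2 reporter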
Conditions: HEK293T SMN2-luciferase reporter, siRNA knockdown, 72 h; actives lie on both sides
The campaign covered roughly 31,000 sequences. About 1,400 (4.5%) were called active. The entries come from a sample that favours actives as a whole.
READOUT_NAME: median seed-adjusted z-score

[[record]]
sequence_chain = "GGAGCCUAUCAUAACCUUATT against ZNF484"
measurement = 0.2

[[record]]
sequence_chain = "GGCUUUUAAGACUAAGGAATT against TRIM69"
measurement = 0.214

[[record]]
sequence_chain = "GGAACGAGGCAGAUAUGGATT against NMNAT2"
measurement = -1.58

[[record]]
sequence_chain = "GCCCAACAGUCAUUCAACATT against CHMP5"
measurement = 0

[[record]]
sequence_chain = "GGAGCAACAUUAUAGUCAATT against TGS1"
measurement = -0.564

[[record]]
sequence_chain = "CGGUAUAAUCGGAAUCGGATT against MKI67IP"
measurement = 0.426

[[record]]
sequence_chain = "CUACUGUUCUUGACCACAATT against DHX15"
measurement = 1.36

[[record]]
sequence_chain = "UGGAAUACAUGGAUCAGAATT against HEPACAM"
measurement = -0.063

[[record]]
sequence_chain = "CAGCCGCUCUCGUCAAUGUTT against GGTLC2"
measurement = -0.288

[[record]]
sequence_chain = "GCACAGAUAUCCUCGUGUATT against ARL11"
measurement = 1

[[record]]
sequence_chain = "GAUGCAUCAUCUGAAUAAATT against CPA6"
measurement = 0.343

[[record]]
sequence_chain = "GGGCACGGGUGAUAUGAAUTT against CTDP1"
measurement = -2.29

[[record]]
sequence_chain = "GCGCAGCCUUUAGAGGAUATT against UBE2J1"
measurement = -1.2


* * *

Assay: Novel Modifiers of Survival Motor Neuron (SMN) Protein: Gene Identification via Genome-wide siRNA Screen;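 also: luminescence tracks full-length SMN protein made from the SMN2 reporter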
Settings: HEK293T SMN2-luciferase reporter, siRNA knockdown, 72 h; actives lie on both sides
Screen size: about 31,000 sequences; about 1,400 (4.5%) were called active.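 The calls were made as follows: active = median seed-adjusted z-score above 1 or below -1; inactive = the rest.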 Many of the other results were omitted from the sample, so actives are more common in it than they were.
Possible outcomes: label 1 (active), label 0 (inactive)

[[record]]
sequence_chain = "AGUACGAUCUUGACUUCAATT against ENO3"
cat = "label 0"

[[record]]
sequence_chain = "GCUCCAACCUCGAAGUAGATT against ACVR2B"
cat = "label 0"

[[record]]
sequence_chain = "ACAUGACCAUGGAAGCUGATT against HIPK4"
cat = "label 0"

[[record]]
sequence_chain = "GCAGGACCUUUUAGCAUCUTT against LYL1"
cat = "label 0"

[[record]]
sequence_chain = "GGCCUUACUUAUUUGUGGATT against MAP2K5"
cat = "label 0"

[[record]]
sequence_chain = "GCAAGAAAAAUCUAAGGAATT against ZNF57"
cat = "label 0"

[[record]]
sequence_chain = "GGCCUAUGCAAAAAGAGGATT against BAD"
cat = "label 0"

[[record]]
sequence_chain = "ACCGUAUUCCUAUAUCUCATT against FOXA3"
cat = "label 0"

[[record]]
sequence_chain = "GCAUUUCGCCUGACCAUUATT against SENP1"
cat = "label 0"

[[record]]
sequence_chain = "CGAUAACGACAGUAAAUCATT against CACNA2D1"
cat = "label 0"

[[record]]
sequence_chain = "GGACAAGGCUAACAUCCCATT against HMGA1"
cat = "label 0"

[[record]]
sequence_chain = "GAACCUCUAUUGUGGACAATT against TMEM1"
cat = "label 0"

[[record]]
sequence_chain = "GGUUCUUGGGUGAAGGACATT against CHGB"
cat = "label 1"

